Values compiled from patent US20220227700A1.

# testSystem: HDAC1 (Homo sapiens)
# Construct: recombinant, full-length HDAC protein (HDAC1 100 pg/ul)
# Sequence (Q13547 whole entry): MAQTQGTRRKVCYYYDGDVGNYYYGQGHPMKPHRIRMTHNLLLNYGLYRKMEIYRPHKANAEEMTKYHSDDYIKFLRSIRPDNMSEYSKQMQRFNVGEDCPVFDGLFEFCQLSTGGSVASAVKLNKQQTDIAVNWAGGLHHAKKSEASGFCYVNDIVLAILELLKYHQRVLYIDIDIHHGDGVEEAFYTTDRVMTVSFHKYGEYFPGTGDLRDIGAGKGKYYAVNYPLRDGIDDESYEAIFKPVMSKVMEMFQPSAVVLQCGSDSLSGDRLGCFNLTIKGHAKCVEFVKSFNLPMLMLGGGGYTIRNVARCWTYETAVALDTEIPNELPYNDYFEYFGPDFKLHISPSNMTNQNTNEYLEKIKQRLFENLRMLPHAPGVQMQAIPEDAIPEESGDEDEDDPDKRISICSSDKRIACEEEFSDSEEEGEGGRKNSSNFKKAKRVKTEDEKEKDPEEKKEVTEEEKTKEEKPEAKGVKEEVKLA
# experimentNotes: HDAC enzyme assay, HDAC1 (fluorogenic, 384-well)
# testParameters: read-out: IC50 HDAC1 (Tables 4-23, isoform selectivity panel)
attributeMeasured: IC50 (nM)

Please tell me: IC50 of Nc1cc(F)ccc1NC(=O)c1ccc(C(=O)NCCc2cccnc2)cc1 (racemic) , system HDAC1 (Homo sapiens)?
1730

Same question, COc1cc(-c2ccccc2)ccc1NC(=O)c1ccc(C(=O)Nc2ccc(F)cc2N)cc1 (racemic) this time
36000

Same question, CC(NC(=O)c1ccc(C(=O)Nc2ccc(F)cc2N)cc1)c1ccccc1[N+](=O)[O-] (racemic) this time
1650

Same question, Nc1cc(F)ccc1NC(=O)c1ccc(C(=O)NC2CCNCC2)cc1 (racemic) this time
3490

Same question, Nc1cc(F)ccc1NC(=O)c1ccc(C(=O)NCCCn2ccnc2)cc1 (racemic) this time
2790

(a) CC(=O)c1ccc(NC(=O)c2ccc(C(=O)Nc3ccc(F)cc3N)cc2)cc1 (racemic)
(b) Nc1cc(F)ccc1NC(=O)c1ccc(C(=O)Nc2ccccc2)cc1 (racemic)
(c) Nc1cc(F)ccc1NC(=O)c1ccc(C(=O)NCCCBr)cc1 (racemic)
(d) Cc1cc(NC(=O)c2ccc(C(=O)Nc3ccc(F)cc3N)cc2)n[nH]1 (racemic)
(e) Nc1cc(F)ccc1NC(=O)c1ccc(C(=O)NCc2ccc(Br)cc2)cc1 (racemic)
Ranking field: IC50; order: falling. Form entry: labels listed in requested order.
c, d, a, b, e

(I) Nc1cc(F)ccc1NC(=O)c1ccc(C(=O)Nc2cccc3cnccc23)cc1 (racemic)
(II) Nc1cc(F)ccc1NC(=O)c1ccc(C(=O)Nc2cccc3[nH]ccc23)cc1 (racemic)
(III) Nc1cc(F)ccc1NC(=O)c1ccc(C(=O)NCC(F)(F)F)cc1 (racemic)
Put these in order: smallest IC50 first, largest last. Form entry: labels listed in requested order.
II, I, III

###

# testSystem: HDAC3 (Homo sapiens)
# Construct: recombinant, full-length HDAC protein (HDAC1 100 pg/ul, HDAC2 200 pg/ul, HDAC3 100 pg/ul); purchased BPS Biosciences, San Diego, Calif., USA
# Sequence (O15379 whole entry): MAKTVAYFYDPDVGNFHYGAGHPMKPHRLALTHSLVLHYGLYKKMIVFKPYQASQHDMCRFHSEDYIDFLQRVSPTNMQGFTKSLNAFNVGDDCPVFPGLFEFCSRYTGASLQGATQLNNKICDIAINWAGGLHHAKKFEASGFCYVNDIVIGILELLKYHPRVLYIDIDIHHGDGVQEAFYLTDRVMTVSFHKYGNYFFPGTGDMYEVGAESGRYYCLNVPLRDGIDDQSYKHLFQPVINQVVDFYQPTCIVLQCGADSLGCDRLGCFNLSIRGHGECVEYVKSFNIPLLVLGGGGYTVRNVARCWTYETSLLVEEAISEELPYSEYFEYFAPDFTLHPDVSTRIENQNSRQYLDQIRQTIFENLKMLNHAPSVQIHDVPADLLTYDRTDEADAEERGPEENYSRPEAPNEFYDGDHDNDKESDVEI
# Sequence (Q9Y618 395-489 partner limits assumed): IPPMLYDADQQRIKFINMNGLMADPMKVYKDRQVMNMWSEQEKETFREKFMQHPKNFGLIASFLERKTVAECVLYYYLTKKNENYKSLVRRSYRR
# experimentNotes: HDAC enzyme assay, HDAC3 (fluorogenic, 384-well)
# Assay type: biochemical
# testParameters: recombinant full-length HDAC3, 3 hours incubation, substrate MAZ1600 at Km; read-out: IC50 against HDAC3 (Table 3, data of FIG. 2)
pIC50: −log10 of the molar value.
attributeMeasured: pIC50

Past entries and their recorded results:
// lookup pIC50 for CC(NC(=O)c1ccc(C(=O)Nc2ccc(F)cc2N)cc1)c1ccccc1[N+](=O)[O-] (racemic)
6.39

Same question, Nc1cc(F)ccc1NC(=O)c1ccc(C(=O)Nc2cccc3sccc23)cc1 (racemic) this time
6.57

Same question, Nc1cc(F)ccc1NC(=O)c1ccc(C(=O)Nc2ccc(N3CCOCC3)cc2)cc1 (racemic) this time
6.59

Same question, Nc1cc(F)ccc1NC(=O)c1ccc(C(=O)NCCc2cccnc2)cc1 (racemic) this time
6.54

(P) Cc1cc(NC(=O)c2ccc(C(=O)Nc3ccc(F)cc3N)cc2)n[nH]1 (racemic)
(Q) Nc1cc(F)ccc1NC(=O)c1ccc(C(=O)Nc2ccccc2)cc1 (racemic)
(R) Nc1cc(F)ccc1NC(=O)c1ccc(C(=O)Nc2cccc3ncccc23)cc1 (racemic)
Ranking field: pIC50; order: falling. Form entry: labels listed in requested order.
Q, P, R
